- protocol_summary: Waters XBridge C18, 0.2 mL/min; A: water + 0.1% formic acid; B: methanol + 0.1% formic acid; gradient (min/%B) 0/10 4/50 17/95 25/95
- measurement_setup: stereoisomer not certain
Below, each entry is listed alongside its reported LC retention time.
Report only the number, with the unit min understood.

Illustrative cases are given below, each with its answer.
CC(C)NCC(O)COc1cccc2ccccc12 (stereo unspecified)	7.2
CC(C)OC(=O)C(C(=O)OC(C)C)=C1SCCS1	13
CCN(CC)C(=O)c1cccc(C)c1	10
CCCC1CC(C(=O)NC(C(C)O)C2OC(SC)C(O)C(O)C2O)N(C)C1 (stereo unspecified)	4.7
CC(C)NCC(O)COc1ccc(COCCOC(C)C)cc1 (stereo unspecified)	6.7

Please look at this compound and report its LC retention time: COc1ccc(C(CN(C)C)C2(O)CCCCC2)cc1 (stereo unspecified)
6.9

Please look at this compound and report its LC retention time: "CC(C)N1C(=O)c2ccccc2NS1(=O)=O"
8.9

----------
- protocol_summary: Waters XBridge C18, 0.2 mL/min; A: water + 0.1% formic acid; B: methanol + 0.1% formic acid; gradient (min/%B) 0/10 4/50 17/95 25/95
- measurement_setup: stereoisomer not certain
reported_metric: LC retention time (min)
Report only the number, with the unit min understood.

CCC1OC(=O)C(C)C(OC2CC(C)(OC)C(O)C(C)O2)C(C)C(OC2OC(C)CC(N(C)C)C2O)C(C)(O)CC(C)C(=NOCOCCOC)C(C)C(O)C1(C)O (configuration not stated)	10
Cc1cc(NS(=O)(=O)c2ccc(N)cc2)no1	5.7
c1ccc2n[nH]nc2c1	5.8
CNC(=C[N+](=O)[O-])NCCS(=O)Cc1ccc(CN(C)C)o1 (configuration not stated)	1.2
COc1ccc(CN2CCNCC2)c(OC)c1OC	3.5

Please look at this compound and report its LC retention time: "Cc1cccc2sc3nncn3c12"
7.3

Please look at this compound and report its LC retention time: "Nc1ccc(S(=O)(=O)Nc2ccccn2)cc1"
4.4

----------
Below, each entry is listed alongside its reported log10 LC retention time.
- protocol_summary: Waters XBridge C18, 0.2 mL/min; A: water + 0.1% formic acid; B: methanol + 0.1% formic acid; gradient (min/%B) 0/10 4/50 17/95 25/95
- measurement_setup: stereoisomer not certain
Kindly note that the scale is log10 and the underlying LC retention time is in min.

Illustrative cases are given below, each with its answer.
COc1cc(Cc2cnc(N)nc2N)cc(OC)c1OC	0.67
COc1ccc2cc(C(C)C(=O)O)ccc2c1 (stereo not given)	1.08
Nc1ccc(S(=O)(=O)Nc2nccs2)cc1	0.62
Cc1cc(=O)n(-c2ccccc2)n1C	0.77
CCN1CCCC1CNC(=O)c1cc(S(=O)(=O)CC)c(N)cc1OC (stereo not given)	0.66
CCCCC(=O)N(Cc1ccc(-c2ccccc2-c2nn[nH]n2)cc1)C(C(=O)O)C(C)C (stereo not given)	1.08
COCC(=O)N(c1c(C)cccc1C)C(C)C(=O)OC (stereo not given)	1.00
CCN(CC)CC(=O)Nc1c(C)cccc1C	0.72

Please look at this compound and report its log10 LC retention time: "Cc1cccc(Nc2ccccc2C(=O)O)c1C"
1.20

Please look at this compound and report its log10 LC retention time: CC(C)NCC(O)COc1ccc(CC(=O)O)cc1 (stereo not given)
0.67

Please look at this compound and report its log10 LC retention time: "COC=C(C(=O)OC)c1ccccc1Oc1cc(Oc2ccccc2C#N)ncn1"
1.04

----------
- protocol_summary: Waters XBridge C18, 0.2 mL/min; A: water + 0.1% formic acid; B: methanol + 0.1% formic acid; gradient (min/%B) 0/10 4/50 17/95 25/95
- measurement_setup: stereoisomer not certain
Below, each entry is listed alongside its reported LC retention time.
Report only the number, with the unit min understood.

Illustrative cases are given below, each with its answer.
CN(C)CCOC(c1ccccc1)c1ccccc1	7.4
CC(C)(C(=O)O)c1ccc(C(O)CCCN2CCC(C(O)(c3ccccc3)c3ccccc3)CC2)cc1 (centres undefined)	8.6
CCCCC1=NC2(CCCC2)C(=O)N1Cc1ccc(-c2ccccc2-c2nn[nH]n2)cc1	11

Kindly review the next molecule as well.
Please look at this molecule and report its LC retention time: "COC(=O)Nc1nc2ccccc2[nH]1"
4.7

----------
- protocol_summary: Waters XBridge C18, 0.2 mL/min; A: water + 0.1% formic acid; B: methanol + 0.1% formic acid; gradient (min/%B) 0/10 4/50 17/95 25/95
- measurement_setup: stereoisomer not certain
Response key: condition met means LC retention time >= 8 min; condition not met means LC retention time < 8 min.

COc1cccc(C2(O)CCCCC2CN(C)C)c1 (centres undefined)	condition not met
O=P(c1ccccc1)(c1ccccc1)c1ccccc1	condition met
Cc1cc(C)nc(NS(=O)(=O)c2ccc(N)cc2)n1	condition not met
CN(C)C(=N)N=C(N)N	condition not met
CC(C)OP(=O)(OC(C)C)SCc1ccccc1	condition met

Reported LC retention time reaches at least 8 min for "NC(=O)N1c2ccccc2C=Cc2ccccc21" ?
condition met

Reported LC retention time reaches at least 8 min for CC(C)NCC(O)COc1ccc(CC(N)=O)cc1 (centres undefined) ?
condition not met

Reported LC retention time reaches at least 8 min for "CN(C(=O)COc1nc2ccccc2s1)c1ccccc1" ?
condition met

Reported LC retention time reaches at least 8 min for "CNC(=C[N+](=O)[O-])NCCSCc1ccc(CN(C)C)o1" ?
condition not met

----------
- protocol_summary: Waters XBridge C18, 0.2 mL/min; A: water + 0.1% formic acid; B: methanol + 0.1% formic acid; gradient (min/%B) 0/10 4/50 17/95 25/95
- measurement_setup: stereoisomer not certain
Response key: Met means LC retention time >= 8 min; Not met means LC retention time < 8 min.

CCC(C)OC(=O)N1CCCCC1CCO (stereo not given)	Met
CN=C(NC#N)NCCSCc1nc[nH]c1C	Not met

Reported LC retention time reaches at least 8 min for "Cc1cccc2n[nH]nc12" ?
Not met
